Test system: iPSC-CMs, iPSC-ECs and HUVECs phenotypes
assay-text: ToxPi 2.0 integration of POD values and physicochemical descriptors
Parameters: species or system human
condition-description: ToxPi-scaled (0-1) score; iPSC cardiomyocytes, 90 min
Where a name gives a salt, the structure may show the parent alone.
assay-endpoint: cm.decay.rise.90min

# compound, recorded-value
data = [
    ("Clc1ccc(Cl)c(-c2cc(Cl)ccc2Cl)c1", 0.1841),
    ("Oc1ccc(O)c(-c2ccc(Cl)cc2)c1 [2',5'-diOH-PCB 3, 4-Chloro-2′,5′-dihydroxybiphenyl]", 0.2325),
    ("Clc1ccc(-c2ccccc2)cc1", 0),
    ("O=S(=O)(O)Oc1cc(-c2ccccc2)ccc1Cl [3-PCB 3 sulfate]", 0),
    ("COc1ccc(-c2ccc(Cl)cc2)cc1", 0),
    ("COc1cc(Cl)c(-c2cc(Cl)ccc2Cl)cc1Cl", 0.5533),
    ("Oc1cccc(-c2ccc(Cl)cc2)c1", 0.4777),
    ("Clc1ccc(Cl)c(-c2c(Cl)ccc(Cl)c2Cl)c1Cl [(+)-PCB 136, 2,2′,3,3′,6,6′-hexachlorobiphenyl]", 0.1898),
    ("Clc1cccc(-c2cccc(Cl)c2)c1", 0.6828),
]
